This collection of values is drawn from PubChem BioAssay (NCI).

Each entry below carries its reported GI50.
Tested on: SK-MEL-2 melanoma
Test: NCI tumour cell line growth inhibition, 384-well format

Check out these entries, answers already filled in.
Cc1cnc(NC2CCOCC2)nc1-n1cnc(C(=O)N[C@H](CN)c2cc(F)cc(Cl)c2)c1 < 0.01 µM
CNC[C@@H](NC(=O)c1ccc(-c2nc([C@H]3CC[C@H](O)[C@@H](F)C3)cnc2N)cc1F)c1cc(F)cc(Br)c1 20.5 µM
NC1(c2ccc(-c3nc4ccn5c(=O)[nH]nc5c4cc3-c3ccccc3)cc2)CCC1 1.59 µM

Challenge: Quick check: GI50 of CO[C@H]1C[C@@H]2CC[C@@H](C)[C@@](O)(O2)C(=O)C(=O)N2CCCC[C@H]2C(=O)O[C@H]([C@H](C)C[C@@H]2CC[C@@H](O)[C@H](OC)C2)CC(=O)[C@H](C)C=C(C)[C@@H](O)[C@@H](OC)C(=O)[C@H](C)C[C@H](C)/C=C/C=C/C=C1C ?
Response given: 11.2 µM
